Experiment: Hygroscopicity measurements (DVS sorption/desorption profiles)
Format: physicochemical
Conditions: Target % P/P0 0.0; 25° C.
parameter measured: Change in Mass (%) - ref, Desorption
Report the value in % with no unit label.

Examples with answers:
[
  {
    "molecule": "Cc1nc(-c2ccc(OCC(C)C)c(C#N)c2)sc1C(=O)O [Form G of U.S. Pat. No. 6,225,474, reference compound]",
    "unit": "%",
    "Change in Mass (%) - ref, Desorption": "−0.013"
  },
  {
    "molecule": "Cc1nc(-c2ccc(OCC(C)C)c(C#N)c2)sc1C(=O)O [Form XI]",
    "unit": "%",
    "Change in Mass (%) - ref, Desorption": "−0.052"
  },
  {
    "molecule": "Cc1nc(-c2ccc(OCC(C)C)c(C#N)c2)sc1C(=O)O [Form IX]",
    "unit": "%",
    "Change in Mass (%) - ref, Desorption": 0.031
  }
]

-- ask Need Change in Mass (%) - ref, Desorption, item Cc1nc(-c2ccc(OCC(C)C)c(C#N)c2)sc1C(=O)O [Form V]
-- reply −9.66

----------
Assay: Aqueous solubility measurements
Type: physicochemical
Conditions: water, 25 °C, water, thermodynamic from solid, media water; 24 hours at 25° C.; read-out: HPLC solubility
parameter measured: solubility at 24 h (µg/mL)
Report the value in µg/mL with no unit label.

-- ask Need solubility at 24 h, item Cc1nc(-c2ccc(OCC(C)C)c(C#N)c2)sc1C(=O)O [Form V]
-- reply 54.9

----------
Assay: Aqueous solubility measurements
Type: physicochemical
Conditions: final pH of saturated solution; media water; shaken 24 hours at 25° C.
Each entry below carries its recorded pH.
Just the number, please.

Examples with answers:
[
  {
    "compound": "Cc1nc(-c2ccc(OCC(C)C)c(C#N)c2)sc1C(=O)O [Form IX]",
    "parameter measured": "pH",
    "endpoint value": 5.403
  },
  {
    "compound": "Cc1nc(-c2ccc(OCC(C)C)c(C#N)c2)sc1C(=O)O [Form XI]",
    "parameter measured": "pH",
    "endpoint value": 8.106
  },
  {
    "compound": "Cc1nc(-c2ccc(OCC(C)C)c(C#N)c2)sc1C(=O)O [Form V]",
    "parameter measured": "pH",
    "endpoint value": 7.520
  }
]

-- ask Need pH, item Cc1nc(-c2ccc(OCC(C)C)c(C#N)c2)sc1C(=O)O [Form G of U.S. Pat. No. 6,225,474, reference compound]
-- reply 8.416

----------
Test: Aqueous solubility measurements
Assay type: physicochemical
Details: media 0.1N HCl; 24 hours at 25° C.

[
  {
    "compound": "Cc1nc(-c2ccc(OCC(C)C)c(C#N)c2)sc1C(=O)O [Form G of U.S. Pat. No. 6,225,474, reference compound]",
    "Visual solubility": "few particles"
  },
  {
    "compound": "Cc1nc(-c2ccc(OCC(C)C)c(C#N)c2)sc1C(=O)O [Form XI]",
    "Visual solubility": "few particles"
  },
  {
    "compound": "Cc1nc(-c2ccc(OCC(C)C)c(C#N)c2)sc1C(=O)O [Form V]",
    "Visual solubility": "few particles"
  }
]
